Molecular target: human LPA1 (Homo sapiens)
Construct: expressed in transfected cells; host or cells: Chinese hamster ovary (CHO) cells
Experiment: LPA1 functional antagonist assay (calcium flux)
Assay type: cell-based
Conditions: CHO cells overexpressing human LPA1; calcium flux induced by 10 nM LPA; read-out: hLPA1 IC50
Exercise: state measured pIC50 for each of the molecules provided.
One number for each entry, as −log10 of the molar value.

COCCOC(=O)NCc1c(-c2ccc(O[C@H]3CCC[C@H](C(=O)O)C3)c(C)n2)nnn1C :: 5.79

Consider the following items and state reported pIC50 for each.
1. CCCOC(=O)NCc1c(-c2ccc(O[C@H]3CCC[C@H](C(=O)O)C3)c(C)n2)nnn1C
2. CCC(CC)OC(=O)Nc1c(-c2ccc(O[C@H]3CCC[C@H](C(=O)O)C3)c(C)n2)nnn1C
3. Cc1nc(-c2nnn(C)c2NC(=O)OCCC(C)(C)C)ccc1O[C@H]1CCC[C@H](C(=O)O)C1
4. Cc1nc(-c2nnn(C)c2CNC(=O)C(C)(C)Oc2ccccc2)ccc1O[C@H]1CCC[C@H](C(=O)O)C1
5. Cc1nc(-c2nnn(C)c2NC(=O)OCC2CC2)ccc1O[C@H]1CCC[C@H](C(=O)O)C1
6. Cc1nc(-c2nnn(C)c2NC(=O)OC(C)(C)C)ccc1O[C@H]1CCC[C@H](C(=O)O)C1
7. COCc1nc(-c2nnn(C)c2CNC(=O)OCc2ccccc2)ccc1O[C@H]1CCC[C@H](C(=O)O)C1
8. CCc1nc(-c2nnn(C)c2CNC(=O)NCc2ccccc2)ccc1O[C@H]1CCC[C@H](C(=O)O)C1

Response:
6.80
7.52
7.12
6.41
7.85
7.27
7.52
6.97

Go through the list and state pIC50 for each entry.
1. Cc1nc(-c2nnn(C)c2NC(=O)OCCC2CC2)ccc1O[C@H]1CCC[C@H](C(=O)O)C1
2. Cc1nc(-c2nnn(C)c2NC(=O)OC2CCCCC2)ccc1O[C@H]1CCC[C@H](C(=O)O)C1
3. Cn1nnc(-c2ccc(O[C@H]3CCC[C@H](C(=O)O)C3)cn2)c1NC(=O)OC1CCCC1
4. CCc1nc(-c2nnn(C)c2CNC(=O)N(C)Cc2ccccc2)ccc1O[C@H]1CCC[C@H](C(=O)O)C1
5. Cc1nc(-c2nnn(C)c2CNS(=O)(=O)NCc2ccccc2)ccc1O[C@H]1CCC[C@H](C(=O)O)C1
6. CCCCOC(=O)Nc1c(-c2nc(C)c(O[C@H]3CCC[C@H](C(=O)O)C3)cc2F)nnn1C

Response:
[7.96, 7.11, 6.83, 6.84, 5.74, 7.14]

====

Molecular target: human LPA1 (Homo sapiens, UniProt Q92633)
Construct: expressed in transfected cells; host or cells: Chinese hamster ovary (CHO) cells
Sequence (Q92633 whole entry): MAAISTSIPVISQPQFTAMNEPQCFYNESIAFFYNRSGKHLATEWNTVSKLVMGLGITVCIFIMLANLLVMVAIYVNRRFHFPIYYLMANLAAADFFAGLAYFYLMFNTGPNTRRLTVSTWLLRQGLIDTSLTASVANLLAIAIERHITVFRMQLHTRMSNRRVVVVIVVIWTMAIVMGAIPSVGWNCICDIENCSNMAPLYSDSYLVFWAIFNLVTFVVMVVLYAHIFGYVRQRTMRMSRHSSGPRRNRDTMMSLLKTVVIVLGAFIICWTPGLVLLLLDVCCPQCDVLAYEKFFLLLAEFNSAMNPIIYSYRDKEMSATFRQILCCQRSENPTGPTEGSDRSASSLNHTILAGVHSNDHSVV
Assay: LPA1 functional antagonist assay (calcium flux)
Assay type: cell-based
Conditions: human LPA1 functional antagonist assay; read-out: hLPA1 IC50
readout: log10 of IC50 (log10 of the value in nM)
Annotation: log10 of IC50, nM basis.

Batch request: log10 of IC50 for each of the following molecules.
1. Cc1nc(-c2nnn(C)c2CNC(=O)O[C@@H](C)C2CC2)ccc1O[C@H]1CCC[C@H](C(=O)O)C1
2. Cc1nc(-c2nnn(C)c2CNC(=O)OCC2CC2(F)F)ccc1O[C@H]1CCC[C@H](C(=O)O)C1 (mixture of isomers)

Response:
1. 2.03
2. 1.72

Okay, here is my list. What is log10 of IC50 for each of these?
1. Cc1nc(-c2nnn(C)c2CNC(=O)OC[C@H]2C[C@@H]2C)ccc1O[C@H]1CCC[C@H](C(=O)O)C1 (stereo in doubt)
2. Cc1nc(-c2nnn(C)c2CNC(=O)OC2CC(C)(C)C2)ccc1O[C@H]1CCC[C@H](C(=O)O)C1
3. Cc1nc(-c2nnn(C)c2CNC(=O)OCC(C)CC(F)F)ccc1O[C@H]1CCC[C@H](C(=O)O)C1 (some centres unmarked)
4. CCC[C@@H](C)OC(=O)NCc1c(-c2ccc(O[C@H]3CCC[C@H](C(=O)O)C3)c(C)n2)nnn1C
5. Cc1nc(-c2nnn(C)c2CNC(=O)OCC2CC(F)(F)C2)ccc1O[C@H]1CCC[C@H](C(=O)O)C1
6. CC[C@H](C)COC(=O)NCc1c(-c2cnc(O[C@H]3CCC[C@H](C(=O)O)C3)c(C)n2)nnn1C
7. Cc1nc(-c2nnn(C)c2CNC(=O)OCC(F)(F)C(F)(F)F)ccc1O[C@H]1CCC[C@H](C(=O)O)C1
8. Cc1nc(-c2nnn(C)c2CNC(=O)OCCCCC(F)(F)F)ccc1O[C@H]1CCC[C@H](C(=O)O)C1

Response:
[1.51, 1.95, 1.92, 1.88, 1.93, 2.04, 1.65, 2.08]

# map each molecule to its log10 of IC50
1. CC(=O)CCCOC(=O)NCc1c(-c2ccc(O[C@H]3CCC[C@H](C(=O)O)C3)c(C)n2)nnn1C
2. Cc1nc(-c2nnn(C)c2CNC(=O)OCCC2(C)CC2)ccc1O[C@H]1CCC[C@H](C(=O)O)C1
3. Cc1nc(-c2nnn(C)c2CNC(=O)OCCC2CC2)ccc1O[C@H]1CCC[C@H](C(=O)O)C1

Response:
1. 2.49
2. 1.86
3. 1.28

These data points were gathered from patent US11697646B2.
